- TEST: CC50 assay in Huh-7 HCV replicon cells (CellTiter-Glo)
- Format: cell-based, human
- ASSAY CONTEXT: human, 50% cytostatic concentration
PROPERTY NAME: CC50 at 3 days (µM)

[[record]]
compound = "COCCOc1nc(N)nc2ccc(-c3ccc(OC)c(OC)c3)nc12"
readout_unit = "µM"
assay_result = 25.1

[[record]]
compound = "CCOc1nc(N)nc2ccc(-c3ccc(NC(C)=O)cc3)nc12"
readout_unit = "µM"
assay_result = 25.1

[[record]]
compound = "CCOc1nc(N)nc2ccc(-c3ccc(OC)nc3)nc12"
readout_unit = "µM"
assay_result = 25.1

[[record]]
compound = "COc1ccc(-c2ccc3nc(N)nc(N4CCCC(C(=O)NCC(C)C)C4)c3n2)cc1OC (stereo not drawn)"
readout_unit = "µM"
assay_result = 4.2

[[record]]
compound = "CCCCCOc1nc(N)nc2ccc(-c3cccc(F)c3)nc12"
readout_unit = "µM"
assay_result = 28

[[record]]
compound = "Nc1nc(N2CCN(C(=O)COc3ccc(F)cc3)CC2)c2nc(-c3ccc(F)cc3)ccc2n1"
readout_unit = "µM"
assay_result = 19.2

[[record]]
compound = "CC(=O)N1CCN(c2nc(N)nc3ccc(-c4ccc5c(c4)OCO5)nc23)CC1"
readout_unit = "µM"
assay_result = 21.8

[[record]]
compound = "COc1ccc(-c2ccc3nc(N)nc(N4CCCN(C(=O)Nc5cccc(C)c5)CC4)c3n2)cc1OC"
readout_unit = "µM"
assay_result = 2.4

[[record]]
compound = "Nc1ccc(-c2ccc3nc(N)nc(N4CCOCC4)c3n2)cc1"
readout_unit = "µM"
assay_result = 8.1

[[record]]
compound = "COc1ccc(-c2ccc3nc(N)nc(NC4CCCN(C(=O)OC(C)(C)C)C4)c3n2)cc1OC (stereo not drawn)"
readout_unit = "µM"
assay_result = 5.2

[[record]]
compound = "COc1ccc(-c2ccc3nc(N)nc(N4CCN(CC(=O)N5CCCC5)CC4)c3n2)cc1OC"
readout_unit = "µM"
assay_result = 2.9

[[record]]
compound = "Nc1nc(OCC2CC2)c2nc(-c3ccc(F)cc3)ccc2n1"
readout_unit = "µM"
assay_result = 25.1

[[record]]
compound = "CCOc1nc(N)nc2ccc(-c3ccccc3F)nc12"
readout_unit = "µM"
assay_result = 37.5

[[record]]
compound = "COc1ccc(-c2ccc3nc(N)nc(NC4CCCN(C(=O)Nc5cccc(C)c5)C4)c3n2)cc1OC (stereo not drawn)"
readout_unit = "µM"
assay_result = 7.3

[[record]]
compound = "CC(=O)Nc1ccc(-c2ccc3nc(N)nc(N4CCOCC4)c3n2)cc1"
readout_unit = "µM"
assay_result = 36

[[record]]
compound = "COc1ccc(-c2ccc3nc(N)nc(NC4CCN(C(=O)OC(C)(C)C)CC4)c3n2)cc1OC"
readout_unit = "µM"
assay_result = 1.5

[[record]]
compound = "Nc1nc(N2CCN(C(=O)COc3ccc(Cl)cc3Cl)CC2)c2nc(-c3ccc(F)cc3)ccc2n1"
readout_unit = "µM"
assay_result = 25.1

[[record]]
compound = "CCOc1cccc(-c2ccc3nc(N)nc(OCC)c3n2)c1"
readout_unit = "µM"
assay_result = 25.1

